System: PPARg:RXRa 270nM:90nM, anti-RXR (NR concentration 270 nM, RXRa partner concentration 90 nM)
Assay: PBM binding z-score (relative to random genomic background probes); higher = stronger binding; sequences stand for … in GC…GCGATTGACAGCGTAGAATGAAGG
Decision: PBM binding z-score compared against 3; not below it gives YES, below it gives NO.

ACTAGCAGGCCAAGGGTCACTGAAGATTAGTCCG
YES
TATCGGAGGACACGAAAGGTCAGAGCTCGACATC
NO
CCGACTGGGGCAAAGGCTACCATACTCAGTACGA
YES
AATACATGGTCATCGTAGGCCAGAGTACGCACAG
NO
CAAACTAGGTCGAGAGGTCAAAGTCCGCTTCCCG
YES
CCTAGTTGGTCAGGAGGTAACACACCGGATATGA
NO
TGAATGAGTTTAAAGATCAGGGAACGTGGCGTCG
NO
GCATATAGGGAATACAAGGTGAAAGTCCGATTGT
NO
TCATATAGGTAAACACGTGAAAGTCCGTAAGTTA
NO
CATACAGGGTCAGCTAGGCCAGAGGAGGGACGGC
NO
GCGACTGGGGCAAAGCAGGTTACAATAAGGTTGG
NO
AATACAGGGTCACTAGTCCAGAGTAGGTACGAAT
YES
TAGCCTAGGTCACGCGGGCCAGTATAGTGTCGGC
YES
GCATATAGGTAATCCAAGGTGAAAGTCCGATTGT
NO
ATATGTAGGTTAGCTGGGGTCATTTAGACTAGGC
YES
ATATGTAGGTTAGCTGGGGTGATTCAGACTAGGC
NO
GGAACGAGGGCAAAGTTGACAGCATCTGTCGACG
YES
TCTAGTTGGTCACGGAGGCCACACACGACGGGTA
NO
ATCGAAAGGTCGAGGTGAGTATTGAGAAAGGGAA
YES
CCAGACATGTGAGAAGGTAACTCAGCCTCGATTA
NO
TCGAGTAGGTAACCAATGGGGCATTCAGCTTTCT
NO
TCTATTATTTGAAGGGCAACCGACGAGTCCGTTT
NO
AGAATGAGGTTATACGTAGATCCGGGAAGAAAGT
NO
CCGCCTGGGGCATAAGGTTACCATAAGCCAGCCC
NO
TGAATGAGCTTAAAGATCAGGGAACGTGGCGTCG
NO
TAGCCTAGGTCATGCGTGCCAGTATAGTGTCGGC
NO
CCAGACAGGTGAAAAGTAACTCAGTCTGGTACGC
NO
